// data source = patent US11439707B2

Assay: absorption spectrum (maximum absorption wavelength, molar extinction coefficient)
Type: physicochemical
Each entry below lists one item and its recorded maximum absorption wavelength value.
Endpoint Label: maximum absorption wavelength (nm)

Compound: COc1c2c3c4c(c(NC(CC(N)=O)C(=O)O)c(=O)c5c(O)cc(OC)c(c6c(OC)cc(NC(CC(N)=O)C(=O)O)c(c1=O)c63)c54)C=C(C)C2C(C)=O (centres unmarked) [HB-26d]
Endpoint Result: 622
//
Compound: COCCOCCOCCOCCOCCNC(=O)C1CCC(CNc2c(O)c3c(=O)cc(OC)c4c5c(OC)cc(=O)c6c(NCC7CCC(C(=O)NCCOCCOCCOCCOCCOC)CC7)c(OC)c7c(c(c2C=C(C)C7)c34)c65)CC1 (centres unmarked) [HC-13b-NH-PEG4]
Endpoint Result: 624
//
Compound: COc1c(NCCCC(=O)OCCCC[N+](C)(C)C)c2c(=O)cc(OC)c3c4c(OC)cc(=O)c5c(O)c(NCCCC(=O)OCCCC[N+](C)(C)C)c6c(c(c1CC(C)=C6)c23)c54
Endpoint Result: 625
//
Compound: COc1c2c3c4c(c(NCCCCCCS(=O)(=O)O)c(=O)c5c(NCCCCCCS(=O)(=O)O)cc(OC)c(c6c(OC)cc(O)c(c1=O)c63)c54)C=C(C)C2C(C)=O (centres unmarked) [HB-11c-C6-SO3H]
Endpoint Result: 626
//
Compound: COc1c(O)c2c(=O)cc(OC)c3c4c(OC)cc(=O)c5c(NCCO)c(NCCO)c6c(c(c1CC(C)=C6)c23)c54
Endpoint Result: 627
